Molecular target: UniProtKB O00444
Sequence (O00444 whole entry): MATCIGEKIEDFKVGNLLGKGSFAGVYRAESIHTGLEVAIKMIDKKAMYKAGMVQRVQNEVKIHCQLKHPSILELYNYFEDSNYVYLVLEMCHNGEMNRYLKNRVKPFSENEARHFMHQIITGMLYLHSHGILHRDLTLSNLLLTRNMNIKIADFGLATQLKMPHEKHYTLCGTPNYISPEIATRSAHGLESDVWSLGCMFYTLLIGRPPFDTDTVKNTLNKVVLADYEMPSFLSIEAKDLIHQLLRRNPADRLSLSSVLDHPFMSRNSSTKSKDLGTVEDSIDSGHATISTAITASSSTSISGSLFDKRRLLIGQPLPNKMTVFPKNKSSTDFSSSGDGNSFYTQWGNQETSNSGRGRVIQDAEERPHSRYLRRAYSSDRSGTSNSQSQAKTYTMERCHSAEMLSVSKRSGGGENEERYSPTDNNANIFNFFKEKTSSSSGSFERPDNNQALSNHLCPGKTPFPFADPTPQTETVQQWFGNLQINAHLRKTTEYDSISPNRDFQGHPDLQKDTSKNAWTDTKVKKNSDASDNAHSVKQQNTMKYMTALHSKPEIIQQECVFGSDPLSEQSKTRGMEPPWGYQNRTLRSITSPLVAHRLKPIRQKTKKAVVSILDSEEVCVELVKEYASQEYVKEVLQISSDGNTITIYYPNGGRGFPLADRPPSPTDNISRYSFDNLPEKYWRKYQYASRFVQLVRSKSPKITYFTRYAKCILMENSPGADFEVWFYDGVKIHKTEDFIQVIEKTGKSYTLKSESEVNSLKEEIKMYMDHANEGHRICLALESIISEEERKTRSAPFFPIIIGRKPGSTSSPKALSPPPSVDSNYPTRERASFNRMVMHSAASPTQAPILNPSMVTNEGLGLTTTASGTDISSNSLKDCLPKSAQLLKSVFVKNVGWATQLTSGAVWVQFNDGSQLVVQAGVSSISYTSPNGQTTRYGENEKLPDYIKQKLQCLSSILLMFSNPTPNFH
Test: PLK4 NanoBRET target engagement assay
Settings: HEK293 T cells transfected with PLK4 NanoLuc fusion vector; K-5 tracer; 2 hrs incubation
measurement-kind: IC50 (nM)

Previously resolved entries follow.
>>> val("Cc1cc(Nc2nc(N(C)c3ccc(S(C)(=O)=O)cc3F)nc(-c3ccn(C)n3)c2C2CC2)n[nH]1")
16
>>> val("Cc1cc(Nc2nc(N(C)c3ccc(S(=O)(=O)C(C)C)cc3)nc(-c3cnn(C)c3)c2C2CC2)n[nH]1")
73
>>> val("COc1c(Nc2cc(C)[nH]n2)nc(Oc2ccc(NS(C)(=O)=O)cc2)nc1-c1cnn(C)c1")
2800
>>> val("COc1c(Nc2cc(C)[nH]n2)nc(N(C)c2ccc(S(C)(=O)=O)cc2F)c(F)c1-c1cnn(C)c1")
1100
>>> val("Cc1cc(Nc2nc(N(C)c3c(F)cc(S(C)(=O)=O)cc3F)nc(-c3cc(C#N)n(C)n3)c2C2CC2)n[nH]1")
18
>>> val("COCCn1cc(-c2nc(N(C)c3c(F)cc(S(C)(=O)=O)cc3F)nc(Nc3cc(C)[nH]n3)c2C2CC2)nc1C")
8

(a) Cc1cc(Nc2nc(N(C)c3c(F)cc(S(C)(=O)=O)cc3F)nc(-c3cn(C)c(C(C)(C)O)n3)c2C2CC2)n[nH]1
(b) Cc1cc(Nc2nc(N(C)c3ccc(S(C)(=O)=O)cc3F)nc(-c3cnn(C)c3)c2OC2CC2)n[nH]1
(c) Cc1cc(Nc2nc(N(C)c3c(F)cc(S(C)(=O)=O)cc3F)nc(-c3cnn(C)c3C(O)C(F)(F)F)c2C2CC2)n[nH]1 (centres unmarked)
(d) Cc1cc(Nc2nc(N(C)c3c(F)cc(S(C)(=O)=O)cc3F)nc(-c3cn[nH]c3C(C)C)c2C2CC2)n[nH]1
Sort the 4 molecules by IC50; largest first, smallest last. Rank them, then answer with their labels in that order. b, c, a, d

(I) Cc1cc(Nc2nc(N(C)c3c(F)cc(S(C)(=O)=O)cc3F)nc(-c3ncnn3C)c2C2CC2)n[nH]1
(II) Cc1cc(Nc2nc(N(C)c3c(F)cc(S(C)(=O)=O)cc3F)nc(-c3cnn(C4CC4)c3)c2C2CC2)n[nH]1
When the recorded IC50 values are compared, which is smaller: that of I or that of II ? Please identify the chosen entry by its label. II
(II: 5 nM, I: 190 nM)

(I) COc1c(Nc2cc(C)[nH]n2)nc(N(C)c2ccc(S(C)(=O)=O)nc2C)nc1-c1cnn(C)c1
(II) Cc1cc(Nc2nc(N(C)c3cc(F)c(S(C)(=O)=O)cc3F)nc(-c3cn(C4CC4)cn3)c2C2CC2)n[nH]1
Which item exceeds the other in IC50, I or II ? Please identify the chosen entry by its label. I
(I: 2100 nM, II: 6 nM)
